biological target: feline FcRn complex (FcRn-α subunit and β-microglobulin), biotin labeled (feline); assay: SPR, pH 7.4
Quantity: pKd
In plain terms, pKd is the concentration in mol/L turned into minus its base-10 logarithm.

Incoming: Give the measured pKd of feline IgG1a S252R/S434H (antibody, part only; not given: Variable domains, not shown: another chain or arm of the molecule) constant: ASTTAPSVFPLAPSCGTTSGATVALACLVLGYFPEPVTVSWNSGALTSGVHTFPAVLQASGLYSLSSMVTVPSSRWLSDTFTCNVAHPPSNTKVDKTVRKTDHPPGPKPCDCPKCPPPEMLGGPSIFIFPPKPKDTLRISRTPEVTCLVVDLGPDDSDVQITWFVDNTQVYTAKTSPREEQFNSTYRVVSVLPILHQDWLKGKEFKCKVNSKSLPSPIERTISKAKGQPHEPQVYVLPPAQEELSRNKVSVTCLIKSFHPPDIAVEWEITGQPEPENNYRTTPPQLDSDGTYFVYSKLSVDRSHWQRGNTYTCSVSHEALHHHHTQKSLTQSPGK .
Outgoing: 7.38

Incoming: Give the measured pKd of feline IgG1a Q311W (antibody, part only; not given: Variable domains, not shown: another chain or arm of the molecule) constant: ASTTAPSVFPLAPSCGTTSGATVALACLVLGYFPEPVTVSWNSGALTSGVHTFPAVLQASGLYSLSSMVTVPSSRWLSDTFTCNVAHPPSNTKVDKTVRKTDHPPGPKPCDCPKCPPPEMLGGPSIFIFPPKPKDTLSISRTPEVTCLVVDLGPDDSDVQITWFVDNTQVYTAKTSPREEQFNSTYRVVSVLPILHWDWLKGKEFKCKVNSKSLPSPIERTISKAKGQPHEPQVYVLPPAQEELSRNKVSVTCLIKSFHPPDIAVEWEITGQPEPENNYRTTPPQLDSDGTYFVYSKLSVDRSHWQRGNTYTCSVSHEALHSHHTQKSLTQSPGK .
Outgoing: 6.68

Incoming: Give the measured pKd of feline IgG1a Q311W/D312P/S434Y (antibody, part only; not given: Variable domains, not shown: another chain or arm of the molecule) constant: ASTTAPSVFPLAPSCGTTSGATVALACLVLGYFPEPVTVSWNSGALTSGVHTFPAVLQASGLYSLSSMVTVPSSRWLSDTFTCNVAHPPSNTKVDKTVRKTDHPPGPKPCDCPKCPPPEMLGGPSIFIFPPKPKDTLSISRTPEVTCLVVDLGPDDSDVQITWFVDNTQVYTAKTSPREEQFNSTYRVVSVLPILHWPWLKGKEFKCKVNSKSLPSPIERTISKAKGQPHEPQVYVLPPAQEELSRNKVSVTCLIKSFHPPDIAVEWEITGQPEPENNYRTTPPQLDSDGTYFVYSKLSVDRSHWQRGNTYTCSVSHEALHYHHTQKSLTQSPGK .
Outgoing: 7.42

Incoming: Give the measured pKd of feline IgG1a Q311R (antibody, part only; not given: Variable domains, not shown: another chain or arm of the molecule) constant: ASTTAPSVFPLAPSCGTTSGATVALACLVLGYFPEPVTVSWNSGALTSGVHTFPAVLQASGLYSLSSMVTVPSSRWLSDTFTCNVAHPPSNTKVDKTVRKTDHPPGPKPCDCPKCPPPEMLGGPSIFIFPPKPKDTLSISRTPEVTCLVVDLGPDDSDVQITWFVDNTQVYTAKTSPREEQFNSTYRVVSVLPILHRDWLKGKEFKCKVNSKSLPSPIERTISKAKGQPHEPQVYVLPPAQEELSRNKVSVTCLIKSFHPPDIAVEWEITGQPEPENNYRTTPPQLDSDGTYFVYSKLSVDRSHWQRGNTYTCSVSHEALHSHHTQKSLTQSPGK .
Outgoing: 7.17

Incoming: Give the measured pKd of feline IgG1a S252H/Q311W (antibody, part only; not given: Variable domains, not shown: another chain or arm of the molecule; small tags and cut ends) constant: ASTTAPSVFPLAPSCGTTSGATVALACLVLGYFPEPVTVSWNSGALTSGVHTFPAVLQASGLYSLSSMVTVPSSRWLSDTFTCNVAHPPSNTKVDKTVRKTDHPPGPKPCDCPKCPPPEMLGGPSIFIFPPKPKDTLHISRTPEVTCLVVDLGPDDSDVQITWFVDNTQVYTAKTSPREEQFNSTYRVVSVLPILHWDWLKGKEFKCKVNSKSLPSPIERTISKAKGQPHEPQVYVLPPAQEELSRNKVSVTCLIKSFHPPDIAVEWEITGQPEPENNYRTTPPQLDSDGTYFVYSKLSVDRSHWQRGNTYTCSVSHEALHSHHTQKSLTQSPGK .
Outgoing: 7.60

---
Incoming: Give the measured pKd of feline IgG1a S428Y/Q311W (antibody, part only; not given: Variable domains, not shown: another chain or arm of the molecule) constant: ASTTAPSVFPLAPSCGTTSGATVALACLVLGYFPEPVTVSWNSGALTSGVHTFPAVLQASGLYSLSSMVTVPSSRWLSDTFTCNVAHPPSNTKVDKTVRKTDHPPGPKPCDCPKCPPPEMLGGPSIFIFPPKPKDTLSISRTPEVTCLVVDLGPDDSDVQITWFVDNTQVYTAKTSPREEQFNSTYRVVSVLPILHWDWLKGKEFKCKVNSKSLPSPIERTISKAKGQPHEPQVYVLPPAQEELSRNKVSVTCLIKSFHPPDIAVEWEITGQPEPENNYRTTPPQLDSDGTYFVYSKLSVDRSHWQRGNTYTCSVYHEALHSHHTQKSLTQSPGK .
Outgoing: 5.12

Incoming: Give the measured pKd of feline IgG1a S252Y/S428M/L314K (antibody, part only; not given: Variable domains, not shown: another chain or arm of the molecule) constant: ASTTAPSVFPLAPSCGTTSGATVALACLVLGYFPEPVTVSWNSGALTSGVHTFPAVLQASGLYSLSSMVTVPSSRWLSDTFTCNVAHPPSNTKVDKTVRKTDHPPGPKPCDCPKCPPPEMLGGPSIFIFPPKPKDTLYISRTPEVTCLVVDLGPDDSDVQITWFVDNTQVYTAKTSPREEQFNSTYRVVSVLPILHQDWKKGKEFKCKVNSKSLPSPIERTISKAKGQPHEPQVYVLPPAQEELSRNKVSVTCLIKSFHPPDIAVEWEITGQPEPENNYRTTPPQLDSDGTYFVYSKLSVDRSHWQRGNTYTCSVMHEALHSHHTQKSLTQSPGK .
Outgoing: 7.60

Incoming: Give the measured pKd of feline IgG1a S434W (antibody, part only; not given: Variable domains, not shown: another chain or arm of the molecule) constant: ASTTAPSVFPLAPSCGTTSGATVALACLVLGYFPEPVTVSWNSGALTSGVHTFPAVLQASGLYSLSSMVTVPSSRWLSDTFTCNVAHPPSNTKVDKTVRKTDHPPGPKPCDCPKCPPPEMLGGPSIFIFPPKPKDTLSISRTPEVTCLVVDLGPDDSDVQITWFVDNTQVYTAKTSPREEQFNSTYRVVSVLPILHQDWLKGKEFKCKVNSKSLPSPIERTISKAKGQPHEPQVYVLPPAQEELSRNKVSVTCLIKSFHPPDIAVEWEITGQPEPENNYRTTPPQLDSDGTYFVYSKLSVDRSHWQRGNTYTCSVSHEALHWHHTQKSLTQSPGK .
Outgoing: 7.67
